# system.under.test: Tyrosine-protein phosphatase non-receptor type 1 (Homo sapiens, UniProt P18031)
# Sequence (P18031 whole entry): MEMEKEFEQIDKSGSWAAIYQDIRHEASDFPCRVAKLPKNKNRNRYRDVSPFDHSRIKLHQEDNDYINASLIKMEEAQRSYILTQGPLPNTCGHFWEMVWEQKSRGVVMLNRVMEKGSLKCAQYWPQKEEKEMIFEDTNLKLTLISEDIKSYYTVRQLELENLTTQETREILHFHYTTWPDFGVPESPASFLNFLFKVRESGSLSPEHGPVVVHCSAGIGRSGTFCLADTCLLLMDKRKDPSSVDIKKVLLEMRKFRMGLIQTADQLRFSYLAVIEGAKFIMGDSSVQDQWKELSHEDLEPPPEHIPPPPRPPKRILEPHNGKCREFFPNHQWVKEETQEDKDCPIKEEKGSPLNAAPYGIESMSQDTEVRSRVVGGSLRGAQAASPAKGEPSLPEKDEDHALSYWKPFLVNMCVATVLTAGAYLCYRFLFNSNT
# experiment.description: Binding affinity to recombinant human N-terminal poly histidine-tagged PTP1B (Glu2 to Asn321 residues) expressed in Escherichia coli by surface plasmon resonance analysis
Reported values of pKd for individual entries
Hey, just a heads up that pKd is the negative log base 10 of the concentration in molar.

Find the recorded pKd belonging to Ac-IWIAQELRRIGDEFNA-NH2 and report it.
7.57

Find the recorded pKd belonging to Ac-IWIAQELRRIGDEF-NH2 and report it.
6.89
